- experiment.description: Cytotoxicity against T cell (unknown origin)
- Format: toxicity, cell-based, Homo sapiens
- reported.conditions: T cells
// pEC50 lookup, one value per entry
Please express pEC50 as -log10 of the molar concentration.

Cc1c(COc2cc(OCc3cccc(C#N)c3)c(CN3C[C@@H](O)C[C@H]3C(=O)O)cc2Cl)cccc1-c1ccc2c(c1)OCCO2 ... 8.85

# ---- query compound ----
Query :: So what does the record say about pEC50 for "COc1nc(OCc2cccc(-c3ccccc3)c2C)ccc1CNCCNC(C)=O" ?
Result :: 7.96
